# assayNotes: Half life after iv administration in cynomolgus monkey
# Format: ADME, organism-based, Macaca fascicularis
# experimentalSetup: in vivo
attributeMeasured: half-life

Examples with answers:
CC(C)CC(COc1ccc(-c2ccc(C#N)cc2)cc1)N(O)C=O (stereo not given) : < 60 min
N#Cc1ccc(-c2ccc(OCC(CSc3ccccc3)N(O)C=O)cc2)cc1 (stereo not given) : < 60 min
N#Cc1ccc(-c2ccc(OCC(c3ccc(F)cc3)N(O)C=O)cc2)cc1 (stereo not given) : < 60 min
N#Cc1ccc(-c2ccc(OCC(COc3ccccc3)N(O)C=O)cc2)cc1 (stereo not given) : < 60 min

Alright, here's another compound for you.
Could you tell me which half-life is on file for N#Cc1ccc(-c2ccc(OCC(Cc3ccc(F)cc3)N(O)C=O)cc2)cc1 (stereo not given) ?
< 60 min

Values were extracted from ChEMBL document CHEMBL1134095.
